Target: 5-hydroxytryptamine receptor 1A (Homo sapiens, UniProt P08908)
Sequence (P08908 whole entry): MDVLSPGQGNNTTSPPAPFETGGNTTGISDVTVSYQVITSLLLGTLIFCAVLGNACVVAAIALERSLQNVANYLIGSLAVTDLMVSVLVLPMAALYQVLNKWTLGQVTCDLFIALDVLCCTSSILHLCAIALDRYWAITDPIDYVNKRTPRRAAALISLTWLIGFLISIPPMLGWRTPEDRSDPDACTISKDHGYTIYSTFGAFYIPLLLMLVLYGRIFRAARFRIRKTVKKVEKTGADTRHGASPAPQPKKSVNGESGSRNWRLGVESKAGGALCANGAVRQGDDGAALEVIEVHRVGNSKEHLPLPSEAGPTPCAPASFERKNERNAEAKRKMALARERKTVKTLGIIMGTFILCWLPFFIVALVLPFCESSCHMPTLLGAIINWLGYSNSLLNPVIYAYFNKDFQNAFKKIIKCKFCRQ
Test: Binding affinity to human 5HT1A receptor expressed in HeLa cells by scintillation proximity assay
Format: cell-based
Readout Name: pKi
Kindly note that pKi refers to -log10 of the concentration in mol/L and answer with the value alone.

Entry Cc1c(OCCCN2CCN(c3cccc4cc(F)ccc34)CC2)ccc2c1C(=O)NC2 needs its pKi filled in; supply it. 8.97

For the compound O=C1NCc2ccc(OCCCCN3CCN(c4cccc5c4CCCC5)CC3)cc21 , give its measured pKi value. 8.72

Given the compound O=C1NCc2cc(F)c(OCCCCN3CCN(c4cccc5cccc(F)c45)CC3)cc21 , write its reported pKi. 9.93

Output measured pKi for this item: O=C1NCc2cc(F)c(OCCCN3CCN(c4cccc5ccc(F)cc45)CC3)cc21 9.47

Tell me its pKi given Cc1cc2c(cc1OCCCN1CCN(c3cccc4ccccc34)CC1)C(=O)NC2 as the entry. 9.17

Give the measured pKi for O=C1NCc2ccc(OCCCN3CCN(c4cccc5cc(F)ccc45)CC3)c(F)c21 8.52

Retrieve pKi measured for O=C1NCc2cc(F)c(OCCCN3CCN(c4cccc5ccccc45)CC3)cc21 and print it. 9.17

Given Cc1cc2c(cc1OCCCN1CCN(c3cccc4cc(F)ccc34)CC1)C(=O)NC2 , respond with its pKi. 9.29

Return pKi for the following compound: O=C1NCc2ccc(OCCCN3CCN(c4cccc5cccc(F)c45)CC3)c(Cl)c21 9.51

Identify pKi associated with the compound Cc1cc2c(cc1OCCCCN1CCN(c3cccc4cccc(F)c34)CC1)C(=O)NC2 8.44

Give me measured pKi, please, for this compound: O=C1NCc2ccc(OCCCN3CCN(c4cccc5c4CCCC5)CC3)cc21 9.57

For the compound O=C1NCc2cc(Cl)c(OCCCCN3CCN(c4cccc5cccc(F)c45)CC3)cc21 , give its reported pKi. 8.77

Supply reported pKi belonging to this compound: O=C1NCc2cc(F)c(OCCCCN3CCN(c4cccc5ccccc45)CC3)cc21 9.20

Consider the compound O=C1NCc2cc(Cl)c(OCCCN3CCN(c4cccc5ccccc45)CC3)cc21 . State its measured pKi. 9.09

Please give measured pKi of the following entry: O=C1NCc2ccc(OCCCCN3CCN(c4cccc5ccccc45)CC3)cc21 8.65

Recall and state the measured pKi for O=C1NCc2cc(Cl)c(OCCCN3CCN(c4cccc5cccc(F)c45)CC3)cc21 . 9.07

Please give measured pKi of the following entry: O=C1NCc2ccc(OCCCN3CCN(c4cccc5ccccc45)CC3)c(F)c21 9.89

Return the recorded pKi value; entry: O=C1NCc2cc(F)c(OCCCN3CCN(c4cccc5cc(F)ccc45)CC3)cc21 9.06

Name the recorded pKi of the compound listed here: O=C1NCc2cc(Cl)c(OCCCCN3CCN(c4cccc5ccccc45)CC3)cc21 8.63

Value source: ChEMBL document CHEMBL1255556
